- experimental details: PubChem AID 1714;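 note: raw slope of fluorescence over initial fluorescence between 10 and 20 s after thallium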
- condition context: HEK293-KCC2 + bumetanide/ouabain, thallium flux FluoZin2; at 10 µM
The other results are listed elsewhere or left out. Inconclusive results are not listed. Calls of active or inactive are those of the source.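 Rule for the calls: active = thallium entry rate above the same plate's blocked-transporter control wells by more than 3 SD; inconclusive = the two repeat wells disagree; inactive = the rest.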
// one of active, inactive, no free text

Please share the test call associated with `N=c1oc2ccccc2cc1C(=O)N/N=C/c1ccccc1` .
inactive

Please share the test call associated with `O=C(CNCc1cccs1)Nc1cc(S(=O)(=O)N2CCCC2)ccc1Cl` .
inactive

Please share the test call associated with `Cc1ccc(C(=O)NC(=S)Nc2ccccc2C)cc1` .
active

Please share the test call associated with `CS(=O)(=O)c1sc(C(=O)NC(=S)Nc2ccc(OC(F)(F)F)cc2)c2c1C=CCC2` .
active

Please share the test call associated with `S=c1nccc(-c2cc(Cl)sc2Cl)[nH]1` .
active

Please share the test call associated with `O=C(Nc1nnc(-c2ccccc2)o1)c1cc(-c2cccs2)nc2ccccc12` .
active

Please share the test call associated with `CC(C)(C)c1ccc(C(=O)NCC(=O)OCN2C(=O)c3ccccc3C2=O)cc1` .
inactive

Please share the test call associated with `CCOC(=O)c1c(C)[nH]c(C)c1C(=O)CSc1nc(N)cc(N)n1` .
inactive

Please share the test call associated with `O=C(CSC1=NCCS1)Nc1nc(-c2ccccc2)cs1` .
inactive

Please share the test call associated with `O=C(Nc1ccn(Cc2ccccc2)n1)c1cccc(F)c1` .
inactive

Please share the test call associated with `O=C(CSc1ccc(-c2cccs2)nn1)Nc1ccccc1F` .
inactive

Please share the test call associated with `COc1ccc(CNC(=O)CCn2cccc2)cc1` .
inactive

Please share the test call associated with `O=C(O)CCN(Cc1ccccc1)S(=O)(=O)c1c(Cl)cccc1Cl` .
inactive

Please share the test call associated with COc1ccc(-c2nc(CS(=O)CC(=O)N3CCc4ccccc4C3)c(C)o2)cc1 (stereo not drawn) .
inactive

Please share the test call associated with `Cn1c(CCCOc2ccc(Cl)cc2Cl)n[nH]c1=S` .
active

Please share the test call associated with `c1ccc2c(C[n+]3csc4ccccc43)cccc2c1` .
active

Please share the test call associated with `CCCCn1c(=S)[nH]c2ccccc2c1=O` .
active

Please share the test call associated with O=C(Nc1nnc(C2COc3ccccc3O2)o1)c1ccc(F)cc1 (stereo not drawn) .
active
